# TARGET OR SYSTEM: human RORγ (Homo sapiens, UniProt P51449)
# Construct: human RORγ, from Ser253 to Lys518; expressed in transfected cells; host or cells: CHO cells (Chinese hamster ovary), transient co-transfection with pG5-Luc
# Sequence (P51449 253-518): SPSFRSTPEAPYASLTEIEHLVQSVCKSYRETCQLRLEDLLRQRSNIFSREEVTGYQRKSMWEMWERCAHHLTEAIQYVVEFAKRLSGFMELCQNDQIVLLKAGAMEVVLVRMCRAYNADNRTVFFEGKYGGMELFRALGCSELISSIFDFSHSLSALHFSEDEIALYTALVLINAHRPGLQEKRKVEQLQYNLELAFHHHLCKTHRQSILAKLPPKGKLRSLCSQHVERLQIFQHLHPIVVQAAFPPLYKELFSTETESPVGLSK
# PROTOCOL: In vitro assay of inhibitory effect against RORγ transcriptional activity (GAL4-hRORγ LBD luciferase reporter gene assay in CHO cells)
# Type: cell-based
# CONDITION DETAILS: value in parentheses beside the > EC50 bound; vehicle-control 0.2% DMSO alone = 100%
OBSERVABLE: hRORγ luciferase activity, %-of-control

Some compounds with recorded hRORγ luciferase activity, %-of-control:
Under human RORγ (Homo sapiens, UniProt P51449): hRORγ luciferase activity, %-of-control value of CC(C)C1=CN(CCC(=O)O)C(=O)N[C@]1(C)c1ccc(CCC2CC(C)(C)C2)c(Cl)c1 ?
(57%)

Follow-up entry: CC(C)(C)COc1ccc(C2NC(=O)N(CCCC(=O)O)C=C2C(C)(C)C)cc1Cl (single isomer, unassigned)
(76%)

Follow-up entry: CC(C)C1=CN(CCC(=O)O)C(=O)N[C@]1(C)c1ccc(CCC2(C)CC2)c(Cl)c1
(77%)

Follow-up entry: CC(C)(C)CCc1ccc(C2NC(=O)N(CCCC(=O)O)C=C2C(C)(C)C)cc1Cl (single isomer, unassigned)
(87%)

Follow-up entry: CC(C)C1=CN(CCC(=O)O)C(=O)N[C@]1(C)c1ccc(CCc2ccccc2)c(Cl)c1
(90%)

Follow-up entry: CC(C)C1=CN(CCC(=O)O)C(=O)N[C@@]1(C)c1ccc(CCc2ccccc2)c(Cl)c1
(60%)

Others:
Under human RORγ (Homo sapiens, UniProt P51449): hRORγ luciferase activity, %-of-control value of CC(C)C1=CN(CCC(=O)O)C(=O)N[C@@]1(C)c1ccc(CCCC(C)(C)C)c(Cl)c1 ?
(54%)

Follow-up entry: CC(C)C1=CN(CCC(C)(C)C(=O)O)C(=O)N[C@]1(C)c1ccc(CCC(C)(C)C)c(Cl)c1
(92%)
